// Kd collected for Cyclin-dependent kinase 2 (Homo sapiens)
measure.name: Kd (nM)

Below, 3 compounds whose answers are already recorded.
sample_smiles=COC(=O)[C@H](Cc1ccc(O)cc1)NC(=O)c1cc(C(=O)O)c2cc(CCc3ccc(Cl)cc3)ccc2n1 unit_abbreviation=nM reading=48
sample_smiles=CCC[C@H](Cc1ccc(O)cc1)NC(=O)c1cc(C(=O)O)c2cc(-c3cccc(C(F)(F)F)c3)ccc2n1 unit_abbreviation=nM reading=400
sample_smiles=COC[C@H](Cc1ccc(O)cc1)NC(=O)c1cc(C(=O)O)c2cc(-c3cccc(C(F)(F)F)c3)ccc2n1 unit_abbreviation=nM reading=240

(P) COC(=O)[C@H](Cc1ccc(O)cc1)NC(=O)c1cc(C(=O)O)c2cc(-c3ccccc3)ccc2n1
(Q) COC(=O)[C@H](Cc1ccc(O)cc1)NC(=O)c1cc(C(=O)O)c2cc(-c3cc(Cl)cc(Cl)c3)ccc2n1
Input: In terms of reported Kd, does P or Q have the smaller number? Give the label of your selection.
Output: Q
(Q: 320 nM, P: 12000 nM)

----------
molecular target: Cyclin-dependent kinase 2 (Homo sapiens, UniProt P24941)
pKi: −log10 of the molar value.
measure.name: pKi

(P) COC(=O)[C@H](Cc1ccc(F)cc1)NC(=O)c1cc(C(=O)O)c2cc(-c3cccc(C(F)(F)F)c3)ccc2n1
(Q) O=C(N[C@@H](Cc1ccc(O)cc1)C(=O)O)c1cc(C(=O)O)c2cc(-c3cccc(C(F)(F)F)c3)ccc2n1
Input: Recorded pKi values differ for P and Q ; which one is higher? Give the label of your selection.
Output: P

----------
target: Cyclin-dependent kinase 2 (Homo sapiens, UniProt P24941)
measure.name: Kd (nM)

sample_smiles=COC(=O)[C@H](Cc1ccc(O)cc1)NC(=O)c1cc(C(=O)O)c2cc(/C=C/c3ccc(Cl)cc3)ccc2n1 reading=5

(I) CN(C)C(=O)[C@H](Cc1ccc(O)cc1)NC(=O)c1cc(C(=O)O)c2cc(/C=C/c3ccc(Cl)cc3)ccc2n1
(II) COC(=O)[C@H](Cc1ccc(O)cc1)NC(=O)c1cc(C(=O)O)c2cc(-c3cccs3)ccc2n1
Input: Recorded Kd values differ for I and II ; which one is higher? Give the label of your selection.
Output: II

----------
molecular target: UniProtKB P24941
measure.name: Ki (nM)

(a) COC(=O)[C@H](Cc1ccc(O)cc1)NC(=O)c1cc(C(=O)O)c2cc(-c3ccc(Cl)cc3)ccc2n1
(b) CN(C)C(=O)[C@H](Cc1ccc(O)cc1)NC(=O)c1cc(C(=O)O)c2cc(/C=C/c3ccc(Cl)cc3)ccc2n1
Input: In terms of reported Ki, does a or b have the smaller number? Give the label of your selection.
Output: b
(b: 160 nM, a: 900 nM)

(P) C[C@H](Cc1ccc(O)cc1)NC(=O)c1cc(C(=O)O)c2cc(-c3cccc(C(F)(F)F)c3)ccc2n1
(Q) COC(=O)[C@H](Cc1ccc(O)cc1)NC(=O)c1cc(C(=O)O)c2cc(-c3cc(Cl)cc(Cl)c3)ccc2n1
Input: Recorded Ki values differ for P and Q ; which one is higher? Give the label of your selection.
Output: P

----------
target: Cyclin-dependent kinase 2 (Homo sapiens, UniProt P24941)
pKd: −log10 of the molar value.
measure.name: pKd

Below, 3 compounds whose answers are already recorded.
sample_smiles=COC(=O)[C@H](Cc1ccc(F)cc1)NC(=O)c1cc(C(=O)O)c2cc(-c3cccc(C(F)(F)F)c3)ccc2n1 target_of_assay="Cyclin-dependent kinase 2 (Homo sapiens, UniProt P24941)" reading=5.40
sample_smiles=COC(=O)[C@H](Cc1ccc(O)cc1)NC(=O)c1cc(C(=O)O)c2cc(N3CCOCC3)ccc2n1 target_of_assay="Cyclin-dependent kinase 2 (Homo sapiens, UniProt P24941)" reading=5.62
sample_smiles=COC(=O)[C@H](Cc1ccc(O)cc1)NC(=O)c1cc(C(=O)O)c2cc(-c3ccc(Cl)cc3)ccc2n1 target_of_assay="Cyclin-dependent kinase 2 (Homo sapiens, UniProt P24941)" reading=6.05

(P) CCCCCCc1ccc2nc(C(=O)N[C@@H](Cc3ccc(O)cc3)C(=O)OC)cc(C(=O)O)c2c1
(Q) C[C@H](Cc1ccc(O)cc1)NC(=O)c1cc(C(=O)O)c2cc(-c3cccc(C(F)(F)F)c3)ccc2n1
Input: Recorded pKd values differ for P and Q ; which one is higher? Give the label of your selection.
Output: P
